Exercise: state measured EC50 for each of the molecules provided.
- Test system: L1210
- procedure.summary: Effective concentration required to inhibit by 50% the growth of L1210 cells
- Assay type: functional, cell-based
- condition.context: Mus musculus
Write the number in µg/mL without appending the unit.

Q) I'd like to know its EC50. The molecule in question is CNCC(=O)Nc1ccc(NC(=O)CNC)c2c1C(=O)c1ccccc1C2=O
A) 0.79

Q) Dear colleague, I am looking for the recorded EC50 of the following molecule: CN(C)CCC(=O)Nc1ccc(NC(=O)CCN(C)C)c2c1C(=O)c1ccccc1C2=O
A) 0.36

Q) Given CN(C)CC(=O)Nc1ccc(NC(=O)CN(C)C)c2c1C(=O)c1ccccc1C2=O , state its recorded EC50.
A) 2.26

Q) Could you share which EC50 value was measured for CNCCC(=O)Nc1ccc(NC(=O)CCNC)c2c1C(=O)c1ccccc1C2=O ?
A) 1.28

Q) # get_value(readout='EC50', item= O=C1c2ccccc2C(=O)c2c(NCCNCCO)ccc(NCCNCCO)c21 )
A) 1.77
